experiment: RP, Waters ACQUITY UPLC BEH C8, 100 × 2.1 mm, 1.7 µm, 55 °C, 0.6 mL/min, estimated dead time 0.37 min; A: 50% water + 25% acetonitrile + 25% isopropanol + 0.05% acetic acid + 20 µM phosphoric acid + 5 mM ammonium acetate; B: 50% acetonitrile + 50% isopropanol + 0.05% acetic acid + 5 mM ammonium acetate; gradient (min/%B) 0/1 0.1/1 2/30 11.5/90 12/99.9 12.5/99.9 12.55/65 12.65/30 12.75/1 12.95/1 13.25/1; settings: stereoisomer not certain
Label True when LC retention time is at or above 8 min; anything below gets False.

Task: Reported LC retention time at or above 8 min? CCCCCCCCCCCCCCCCCCOCC(COP(=O)([O-])OCC[N+](C)(C)C)OC(=O)CCCCCCCCCCCCCCC (stereo not given)
Result: False

Task: Reported LC retention time at or above 8 min? CCCCCCCCCCCC=CC(O)C(CO)NC(=O)CCCCCCCCCCCCCCCCCCC (stereo not given)
Result: False

Task: Reported LC retention time at or above 8 min? CCCCCCCCCCCCCCCCCC(=O)OCC(COP(=O)([O-])OCC[N+](C)(C)C)OC(=O)CCCCCCCCCCCCCCCCC (stereo not given)
Result: False

Task: Reported LC retention time at or above 8 min? CCCCCCCCCCCCCCCCC(=O)OCC(O)COP(=O)([O-])OCC[N+](C)(C)C (stereo not given)
Result: False

Task: Reported LC retention time at or above 8 min? CCCCCCCCCCCC=CC(O)C(COP(=O)([O-])OCC[N+](C)(C)C)NC(=O)CCCCCCCCCCCCCCCCCCC (stereo not given)
Result: False

Task: Reported LC retention time at or above 8 min? CCCCCCCCCCCCCC(=O)OC(CO)COP(=O)([O-])OCC[N+](C)(C)C (stereo not given)
Result: False

Task: Reported LC retention time at or above 8 min? CCCCCCCCCCCCCC=CC(O)C(COP(=O)([O-])OCC[N+](C)(C)C)NC(=O)CCCCCCCCCCCCCCCCCCCCCCC (stereo not given)
Result: True

Task: Reported LC retention time at or above 8 min? CCCCCCCCCCCCCCC(=O)OCC(O)COP(=O)([O-])OCC[N+](C)(C)C (stereo not given)
Result: False

Task: Reported LC retention time at or above 8 min? CCCCCCCCCCCCCCCCCC(=O)OC(CO)COP(=O)([O-])OCC[N+](C)(C)C (stereo not given)
Result: False

Task: Reported LC retention time at or above 8 min? CCCCCCCCCCCCCC(=O)OC(CC(=O)[O-])C[N+](C)(C)C (stereo not given)
Result: False

Task: Reported LC retention time at or above 8 min? CC1=CCCC(C)(C)C1/C=C/C(C)=C/C=C/C(C)=C/C=C/C=C(C)/C=C/C=C(C)/C=C/C1=C(C)CCCC1(C)C (stereo not given)
Result: True

Task: Reported LC retention time at or above 8 min? CCCCCCCCCCCC=CC(O)C(COP(=O)([O-])OCC[N+](C)(C)C)NC(=O)CCCCCCCCCCCCCCCCCCCCCC (stereo not given)
Result: False

Task: Reported LC retention time at or above 8 min? CCCCCCCCCCCCCCCC(=O)OCC(COP(=O)([O-])OCC[N+](C)(C)C)OC(=O)CCCCCCCCCCCCCC (stereo not given)
Result: False
